Test: Cytotoxicity against human PANC1 cells assessed as cell growth at 10 uM after 72 hrs by Cell Titer 96 cell proliferation assay relative to control
Assay type: functional
Conditions: PANC-1, 72 h, read-out: Activity
Documented growth at 10 µM across a set of compounds
The reply must contain the numeric value and, after it, the unit.

Study these solved cases before continuing.
Compound	Result
C=C(C(=O)O)C(O)c1ccc(OC)cc1 (stereo not given)	125%
C=C(C(=O)OC)[C@@H](c1ccccc1)[C@H](O[Si](C)(C)C(C)(C)C)c1ccccc1 (relative stereo)	135%
C=C(C(=O)OC)[C@@H](c1ccccc1)[C@H](O)C1CCCCC1 (relative stereo)	83%
C=C(C(=O)OC)C(CO)c1ccccc1 (stereo not given)	102%

Entry C=C(C(=O)OC)C(O)c1cccc(F)c1 (stereo not given) needs its growth at 10 µM filled in; supply it.
166%

Entry C=C(C(=O)OC)[C@@H](C1CCCCC1)[C@@H](C)O (relative stereo) needs its growth at 10 µM filled in; supply it.
145%

Entry C=C(C(=O)OC)[C@@H](c1ccccc1)[C@@H](C)O (relative stereo) needs its growth at 10 µM filled in; supply it.
96%

Entry C=C(C(=O)OC)C(O)c1ccccc1 (stereo not given) needs its growth at 10 µM filled in; supply it.
118%

Entry C=C(C(=O)OC)[C@@H](c1ccccc1)[C@H](OC)c1ccccc1 (relative stereo) needs its growth at 10 µM filled in; supply it.
123%

Entry C=C(C(=O)OC)[C@@H](C)[C@@H](C)O (relative stereo) needs its growth at 10 µM filled in; supply it.
110%
